Reference for the values: patent US8513224B2

Assay remarks: Physical stability at elevated temperatures (impurities by HPLC)
Format: physicochemical
Test settings: stored 7 days at 80° C.; in % (unit assumed)
Structures can show the parent of a compound that is named as a salt.
Assign 4-Epi-Tigecycline 7 days at 80° C. to each entry below.
Answers are plain numbers.

Entry under review: CN(C)c1cc(NC(=O)CNC(C)(C)C)c(O)c2c1C[C@H]1C[C@H]3[C@H](N(C)C)C(=O)C(C(N)=O)=C(O)[C@@]3(O)C(=O)C1=C2O [WO 2008/066935 XII, Tigecycline] . Reported 4-Epi-Tigecycline 7 days at 80° C.? 0.70

For each of the molecules below, state 4-Epi-Tigecycline 7 days at 80° C..
1. CN(C)c1cc(NC(=O)CNC(C)(C)C)c(O)c2c1C[C@H]1C[C@H]3[C@H](N(C)C)C(O)=C(C(N)=O)C(=O)[C@@]3(O)C(O)=C1C2=O [WO 2006/128150 I, Tigecycline]
2. CN(C)c1cc(NC(=O)CNC(C)(C)C)c(O)c2c1C[C@H]1C[C@H]3[C@H](N(C)C)C(O)=C(C(N)=O)C(=O)[C@@]3(O)C(O)=C1C2=O [C (x2HCl), Tigecycline dihydrochloride]
3. CN(C)c1cc(NC(=O)CNC(C)(C)C)c(O)c2c1C[C@H]1C[C@H]3[C@H](N(C)C)C(O)=C(C(N)=O)C(=O)[C@@]3(O)C(O)=C1C2=O [WO 2006/128150 IV, Tigecycline]
4. CN(C)c1cc(NC(=O)CNC(C)(C)C)c(O)c2c1C[C@H]1C[C@H]3[C@H](N(C)C)C(O)=C(C(N)=O)C(=O)[C@@]3(O)C(O)=C1C2=O.Cl.Cl [C + 20% amorphous (x2HCl), Tigecycline dihydrochloride]
5. CN(C)c1cc(NC(=O)CNC(C)(C)C)c(O)c2c1C[C@H]1C[C@H]3[C@H](N(C)C)C(=O)C(C(N)=O)=C(O)[C@@]3(O)C(=O)C1=C2O [WO 2006/128150 III, Tigecycline]

1: 2.15; 2: 2.40; 3: 0.38; 4: 4.34; 5: 2.18

###

Assay remarks: Physical stability at elevated temperatures (impurities by HPLC)
Format: physicochemical
Test settings: ambient conditions; listed as WO 2007/127792 II
Recorded endpoint: 4-Epi-Tigecycline at ambient conditions (%)
Numbers only, in %.

If you can, please state the reported 4-Epi-Tigecycline at ambient conditions value of `CN(C)c1cc(NC(=O)CNC(C)(C)C)c(O)c2c1C[C@H]1C[C@H]3[C@H](N(C)C)C(O)=C(C(N)=O)C(=O)[C@@]3(O)C(O)=C1C2=O` . 0.17

###

Assay remarks: Physical stability at elevated temperatures (impurities by HPLC)
Type: physicochemical
Test settings: ambient conditions
Counter-ions that a name gives are not always drawn.
Recorded endpoint: 4-Epi-Tigecycline at ambient conditions (%)
Give bare numbers, in %.

Worked cases, 4-Epi-Tigecycline at ambient conditions given:
Given CN(C)c1cc(NC(=O)CNC(C)(C)C)c(O)c2c1C[C@H]1C[C@H]3[C@H](N(C)C)C(O)=C(C(N)=O)C(=O)[C@@]3(O)C(O)=C1C2=O [WO 2006/128150 I, Tigecycline] , state its recorded 4-Epi-Tigecycline at ambient conditions. 0.36

Look up 4-Epi-Tigecycline at ambient conditions for this compound: CN(C)c1cc(NC(=O)CNC(C)(C)C)c(O)c2c1C[C@H]1C[C@H]3[C@H](N(C)C)C(=O)C(C(N)=O)=C(O)[C@@]3(O)C(=O)C1=C2O [WO 2006/128150 III, Tigecycline] 0.16

Record request: 4-Epi-Tigecycline at ambient conditions value, item CN(C)c1cc(NC(=O)CNC(C)(C)C)c(O)c2c1C[C@H]1C[C@H]3[C@H](N(C)C)C(O)=C(C(N)=O)C(=O)[C@@]3(O)C(O)=C1C2=O.Cl.Cl [C + 20% amorphous (x2HCl), Tigecycline dihydrochloride] 1.73

Record 4-Epi-Tigecycline at ambient conditions per entry; entries follow.
1. CN(C)c1cc(NC(=O)CNC(C)(C)C)c(O)c2c1C[C@H]1C[C@H]3[C@H](N(C)C)C(O)=C(C(N)=O)C(=O)[C@@]3(O)C(O)=C1C2=O [C (x2HCl), Tigecycline dihydrochloride]
2. CN(C)c1cc(NC(=O)CNC(C)(C)C)c(O)c2c1C[C@H]1C[C@H]3[C@H](N(C)C)C(O)=C(C(N)=O)C(=O)[C@@]3(O)C(O)=C1C2=O [WO 2008/066935 IX, Tigecycline]
3. CN(C)c1cc(NC(=O)CNC(C)(C)C)c(O)c2c1C[C@H]1C[C@H]3[C@H](N(C)C)C(O)=C(C(N)=O)C(=O)[C@@]3(O)C(O)=C1C2=O [WO 2006/128150 II, Tigecycline]
4. CN(C)c1cc(NC(=O)CNC(C)(C)C)c(O)c2c1C[C@H]1C[C@H]3[C@H](N(C)C)C(O)=C(C(N)=O)C(=O)[C@@]3(O)C(O)=C1C2=O [WO 2006/128150 IV, Tigecycline]
5. CN(C)c1cc(NC(=O)CNC(C)(C)C)c(O)c2c1C[C@H]1C[C@H]3[C@H](N(C)C)C(=O)C(C(N)=O)=C(O)[C@@]3(O)C(=O)C1=C2O [WO 2008/066935 XII, Tigecycline]

[0.73, 0.15, 1.04, 0.23, 0.15]

###

Assay remarks: Physical stability at elevated temperatures (impurities by HPLC)
Assay type: physicochemical
Test settings: ambient conditions; listed as WO 2007/127792 I
Recorded endpoint: Total impurities at ambient conditions
Answer by giving the amount and then stating its unit.

Name the recorded Total impurities at ambient conditions for CN(C)c1cc(NC(=O)CNC(C)(C)C)c(O)c2c1C[C@H]1C[C@H]3[C@H](N(C)C)C(O)=C(C(N)=O)C(=O)[C@@]3(O)C(O)=C1C2=O [WO 2007/127292 I, Tigecycline] . 0.59%

###

Assay remarks: Physical stability at elevated temperatures (impurities by HPLC)
Assay type: physicochemical
Test settings: ambient conditions
Recorded endpoint: Total impurities at ambient conditions (%)
Give bare numbers, in %.

Hi there! I need Total impurities at ambient conditions for each item below, if you can.
1. CN(C)c1cc(NC(=O)CNC(C)(C)C)c(O)c2c1C[C@H]1C[C@H]3[C@H](N(C)C)C(O)=C(C(N)=O)C(=O)[C@@]3(O)C(O)=C1C2=O.Cl.Cl [C + 20% amorphous (x2HCl), Tigecycline dihydrochloride]
2. CN(C)c1cc(NC(=O)CNC(C)(C)C)c(O)c2c1C[C@H]1C[C@H]3[C@H](N(C)C)C(O)=C(C(N)=O)C(=O)[C@@]3(O)C(O)=C1C2=O [WO 2006/128150 I, Tigecycline]
3. CN(C)c1cc(NC(=O)CNC(C)(C)C)c(O)c2c1C[C@H]1C[C@H]3[C@H](N(C)C)C(O)=C(C(N)=O)C(=O)[C@@]3(O)C(O)=C1C2=O [WO 2008/066935 IX, Tigecycline]
4. CN(C)c1cc(NC(=O)CNC(C)(C)C)c(O)c2c1C[C@H]1C[C@H]3[C@H](N(C)C)C(=O)C(C(N)=O)=C(O)[C@@]3(O)C(=O)C1=C2O [WO 2006/128150 III, Tigecycline]

1. 1.81
2. 0.75
3. 0.43
4. 0.16

###

Assay remarks: Physical stability at elevated temperatures (impurities by HPLC)
Type: physicochemical
Test settings: stored 7 days at 80° C.; in % (unit assumed)
Where a name gives a salt, the structure may show the parent alone.
Recorded endpoint: Total impurities 7 days at 80° C.
Answers are plain numbers.

Example results:
What does the data say about its Total impurities 7 days at 80° C.? Entry: CN(C)c1cc(NC(=O)CNC(C)(C)C)c(O)c2c1C[C@H]1C[C@H]3[C@H](N(C)C)C(O)=C(C(N)=O)C(=O)[C@@]3(O)C(O)=C1C2=O [WO 2006/128150 I, Tigecycline] 11.20

Requested field: Total impurities 7 days at 80° C.. Item: CN(C)c1cc(NC(=O)CNC(C)(C)C)c(O)c2c1C[C@H]1C[C@H]3[C@H](N(C)C)C(O)=C(C(N)=O)C(=O)[C@@]3(O)C(O)=C1C2=O [WO 2006/128150 IV, Tigecycline] 0.87

Please report the recorded Total impurities 7 days at 80° C. for CN(C)c1cc(NC(=O)CNC(C)(C)C)c(O)c2c1C[C@H]1C[C@H]3[C@H](N(C)C)C(=O)C(C(N)=O)=C(O)[C@@]3(O)C(=O)C1=C2O [WO 2006/128150 III, Tigecycline] . 4.46

For each of the molecules below, note its Total impurities 7 days at 80° C..
1. CN(C)c1cc(NC(=O)CNC(C)(C)C)c(O)c2c1C[C@H]1C[C@H]3[C@H](N(C)C)C(O)=C(C(N)=O)C(=O)[C@@]3(O)C(O)=C1C2=O [WO 2006/128150 V, Tigecycline]
2. CN(C)c1cc(NC(=O)CNC(C)(C)C)c(O)c2c1C[C@H]1C[C@H]3[C@H](N(C)C)C(O)=C(C(N)=O)C(=O)[C@@]3(O)C(O)=C1C2=O.Cl.Cl [C + 20% amorphous (x2HCl), Tigecycline dihydrochloride]
3. CN(C)c1cc(NC(=O)CNC(C)(C)C)c(O)c2c1C[C@H]1C[C@H]3[C@H](N(C)C)C(O)=C(C(N)=O)C(=O)[C@@]3(O)C(O)=C1C2=O [C (x2HCl), Tigecycline dihydrochloride]
4. CN(C)c1cc(NC(=O)CNC(C)(C)C)c(O)c2c1C[C@H]1C[C@H]3[C@H](N(C)C)C(O)=C(C(N)=O)C(=O)[C@@]3(O)C(O)=C1C2=O [WO 2006/128150 II, Tigecycline]
5. CN(C)c1cc(NC(=O)CNC(C)(C)C)c(O)c2c1C[C@H]1C[C@H]3[C@H](N(C)C)C(O)=C(C(N)=O)C(=O)[C@@]3(O)C(O)=C1C2=O [WO 2008/066935 IX, Tigecycline]

[0.37, 4.88, 2.60, 18.44, 2.13]

Please report the recorded Total impurities 7 days at 80° C. for CN(C)c1cc(NC(=O)CNC(C)(C)C)c(O)c2c1C[C@H]1C[C@H]3[C@H](N(C)C)C(=O)C(C(N)=O)=C(O)[C@@]3(O)C(=O)C1=C2O [WO 2008/066935 XII, Tigecycline] . 4.38
